tested on: GST-Bcl-2; assay: TR-FRET binding assay, Bcl-2; details: TR-FRET Ki values
recorded metric: Binding selectivity ratio (Bcl-XL Ki/Bcl-2 Ki)
Please reply with the value in numeric form only.

Answered cases to consult:
CC1(C)CCC(CN2CCN(c3ccc(C(=O)NS(=O)(=O)c4ccc(NCCCN5CCOCC5)c([N+](=O)[O-])c4)c(Oc4ccc5[nH]ncc5c4)c3)CC2)=C(c2ccc(Cl)cc2)C1 [Example 20]	32.8
CC1(C)CCC(CN2CCN(c3ccc(C(=O)NS(=O)(=O)c4cnc(OCC5CCOCC5)c(Br)c4)c(Oc4cccc5[nH]ccc45)c3)CC2)=C(c2ccc(Cl)cc2)C1 [EXAMPLE 364]	12197.3
CC1(C)CCC(CN2CCN(c3ccc(C(=O)NS(=O)(=O)c4ccc(NCCCN5CCOCC5)c([N+](=O)[O-])c4)c(Oc4ccccc4)c3)CC2)=C(c2ccc(Cl)cc2)C1 [Example 18]	34.2

Sample CC1(C)CCC(CN2CCN(c3ccc(C(=O)NS(=O)(=O)c4ccc(OCC5(F)CCOCC5)c([N+](=O)[O-])c4)c(Oc4cccc5[nH]ccc45)c3)CC2)=C(c2ccc(Cl)cc2)C1 [EXAMPLE 306] ; Binding selectivity ratio (Bcl-XL Ki/Bcl-2 Ki) observed: 622

Sample COc1ccc(C2=C(CN3CCN(c4ccc(C(=O)NS(=O)(=O)c5ccc(NCCCN6CCCC6)c([N+](=O)[O-])c5)c(Oc5cccc6[nH]ccc56)c4)CC3)CCC(C)(C)C2)cc1 [Example 68] ; Binding selectivity ratio (Bcl-XL Ki/Bcl-2 Ki) observed: 11.4

Sample O=C(NS(=O)(=O)c1ccc(NCC2CCOCC2)c([N+](=O)[O-])c1)c1ccc(N2CCN(Cc3ccccc3-c3ccc(Cl)cc3)CC2)cc1Oc1ccccc1 [Example 1] ; Binding selectivity ratio (Bcl-XL Ki/Bcl-2 Ki) observed: 85.4

Sample O=C(NS(=O)(=O)c1ccc(NCCn2nccn2)c([N+](=O)[O-])c1)c1ccc(N2CCN(Cc3ccccc3-c3ccc(Cl)cc3)CC2)cc1Oc1ccccc1 [Example 165] ; Binding selectivity ratio (Bcl-XL Ki/Bcl-2 Ki) observed: 44.5

Sample CCN(CC)C1CCC(Nc2ccc(S(=O)(=O)NC(=O)c3ccc(N4CCN(CC5=C(c6ccc(Cl)cc6)CC(C)(C)CC5)CC4)cc3Oc3cccc4[nH]ccc34)cc2[N+](=O)[O-])CC1 (centres unmarked) [EXAMPLE 203] ; Binding selectivity ratio (Bcl-XL Ki/Bcl-2 Ki) observed: 139.5

Sample COCCOCCSc1ccc(S(=O)(=O)NC(=O)c2ccc(N3CCN(CC4=C(c5ccc(Cl)cc5)CC(C)(C)CC4)CC3)cc2Oc2ccc3[nH]ccc3c2)cc1[N+](=O)[O-] [EXAMPLE 380] ; Binding selectivity ratio (Bcl-XL Ki/Bcl-2 Ki) observed: 2107.3

Sample CN1CCC(Nc2ccc(S(=O)(=O)NC(=O)c3ccc(N4CCN(CC5=C(c6ccc(Cl)cc6)CC(C)(C)OC5)CC4)cc3Oc3cccc4[nH]ccc34)cc2[N+](=O)[O-])CC1 [Example 145] ; Binding selectivity ratio (Bcl-XL Ki/Bcl-2 Ki) observed: 401

Sample CC1(C)CCC(CN2CCN(c3ccc(C(=O)NS(=O)(=O)c4ccc(NCCCN5CCCC5)c([N+](=O)[O-])c4)c(Oc4cccc5[nH]ccc45)c3)CC2)=C(c2cccc(F)c2)C1 [Example 72] ; Binding selectivity ratio (Bcl-XL Ki/Bcl-2 Ki) observed: 17.3

###

tested on: GST-Bcl-2; assay: TR-FRET binding assay, Bcl-2; conditions: TR-FRET Ki values
We use 600 as the dividing line for Binding selectivity ratio (Bcl-XL Ki/Bcl-2 Ki): on or above the line is 1 (yes), below is 0 (no).

CC(=O)N1CCOC(CNc2ccc(S(=O)(=O)NC(=O)c3ccc(N4CCN(CC5=C(c6ccc(Cl)cc6)CC(C)(C)CC5)CC4)cc3Oc3cccc4[nH]cnc34)cc2[N+](=O)[O-])C1 (stereo not shown) [EXAMPLE 457]	1 (yes)
CC1(C)CCC(CN2CCN(c3ccc(C(=O)NS(=O)(=O)c4ccc(NCCCN5CCNC(=O)C5)c([N+](=O)[O-])c4)c(Oc4cccc5[nH]ccc45)c3)CC2)=C(c2ccc(Cl)cc2)C1 [EXAMPLE 223]	0 (no)
CN1CCC(Nc2ccc(S(=O)(=O)NC(=O)c3ccc(N4CCN(CC5=C(c6ccc(Cl)cc6)CC(C)(C)CC5)C(CO)C4)cc3Oc3ccc4[nH]ccc4c3)cc2[N+](=O)[O-])CC1 (stereo not shown) [EXAMPLE 218]	1 (yes)
CC1(C)CCC(CN2CCN(c3ccc(C(=O)NS(=O)(=O)c4ccc(NC5CCOCC5)c([N+](=O)[O-])c4)c(Oc4ccc5[nH]ccc5c4)c3)CC2)=C(c2ccc(Cl)cc2)C1 [EXAMPLE 263]	1 (yes)
CC1(C)CCC(CN2CCN(c3ccc(C(=O)NS(=O)(=O)c4ccc(NC5CCN(S(C)(=O)=O)CC5)c([N+](=O)[O-])c4)c(Oc4cccc5[nH]ccc45)c3)CC2)=C(c2ccc(Cl)cc2)C1 [EXAMPLE 338]	1 (yes)

Task item: Would you say CC1(C)CCC(CN2CCN(c3ccc(C(=O)NS(=O)(=O)c4cnc(O[C@@H]5CCN(C(CF)CF)C5)c(Cl)c4)c(Oc4cccc5[nH]ncc45)c3)CC2)=C(c2ccc(Cl)cc2)C1 [EXAMPLE 434] shows Binding selectivity ratio (Bcl-XL Ki/Bcl-2 Ki) at minimum 600?
Reply: 1 (yes)

Task item: Would you say CC1(C)CCC(CN2CCN(c3ccc(C(=O)NS(=O)(=O)c4ccc(NCC5CCC(F)(F)CC5)c([N+](=O)[O-])c4)c(Oc4cccc5[nH]ncc45)c3)CC2)=C(c2ccc(Cl)cc2)C1 [EXAMPLE 412] shows Binding selectivity ratio (Bcl-XL Ki/Bcl-2 Ki) at minimum 600?
Reply: 1 (yes)

Task item: Would you say CC1(C)CCC(CN2CCN(c3ccc(C(=O)NS(=O)(=O)c4ccc(NCC5(CO)CCOCC5)c([N+](=O)[O-])c4)c(Oc4ccc5[nH]ccc5c4)c3)CC2)=C(c2ccc(Cl)cc2)C1 [EXAMPLE 232] shows Binding selectivity ratio (Bcl-XL Ki/Bcl-2 Ki) at minimum 600?
Reply: 0 (no)

###

Some compounds, each annotated with its measured Binding selectivity ratio (Bcl-XL Ki/Bcl-2 Ki).
test system: GST-Bcl-2; experiment: TR-FRET binding assay, Bcl-2; details: TR-FRET Ki values
Please reply with the value in numeric form only.

Answered cases to consult:
CN1CCC(Nc2ccc(S(=O)(=O)NC(=O)c3ccc(N4CCN(CC5=C(c6ccc(Cl)cc6)CCCC5)CC4)cc3Oc3ccc4[nH]ccc4c3)cc2[N+](=O)[O-])CC1 [Example 75]	852.2
CN1CC(Nc2ccc(S(=O)(=O)NC(=O)c3ccc(N4CCN(CC5=C(c6ccc(Cl)cc6)CC(C)(C)CC5)CC4)cc3Oc3ccc4[nH]ccc4c3)cc2[N+](=O)[O-])CC1=O (stereo not shown) [EXAMPLE 281]	1558.9
O=C(NS(=O)(=O)c1ccc(NCCCN2CCCC2)c([N+](=O)[O-])c1)c1ccc(N2CCN(CC3=C(c4ccc(Cl)cc4)CCC3)CC2)cc1Oc1cccc2[nH]ccc12 [Example 143]	33.8
CC1(C)CCC(CN2CCN(c3ccc(C(=O)NS(=O)(=O)c4ccc(NCC5CN(S(C)(=O)=O)CCO5)c([N+](=O)[O-])c4)c(Oc4cccc5[nH]cnc45)c3)CC2)=C(c2ccc(Cl)cc2)C1 (stereo not shown) [EXAMPLE 458]	237.24
CN(C)CCCNc1ccc(S(=O)(=O)NC(=O)c2ccc(N3CCN(CC4=C(c5ccc(Cl)cc5)CC(C)(C)CC4)CC3)cc2Oc2ccc3[nH]ccc3c2)cc1S(=O)(=O)C(F)(F)F [Example 170]	30.2
CC1(C)CCC(CN2CCN(c3ccc(C(=O)NS(=O)(=O)c4cnc(OCC5(F)CCOCC5)c(Cl)c4)c(Oc4cccc5[nH]ccc45)c3)CC2)=C(c2ccc(Cl)cc2)C1 [EXAMPLE 405]	1395

Tested on GST-Bcl-2, the item CC1(C)CCC(CN2CCN(c3ccc(C(=O)NS(=O)(=O)c4ccc(NC5CCN(C6CCOCC6)CC5)c([N+](=O)[O-])c4)c(Oc4ccc5[nH]ccc5c4)c3)CC2)=C(c2ccc(Cl)cc2)C1 [Example 173] showed Binding selectivity ratio (Bcl-XL Ki/Bcl-2 Ki) equal to 204.6

Tested on GST-Bcl-2, the item CN(C)CCCNc1ccc(S(=O)(=O)NC(=O)c2ccc(N3CCN(CC4=C(c5ccc(Cl)cc5)CCC(C)(C)C4)CC3)cc2Oc2ccc3[nH]ccc3c2)cc1[N+](=O)[O-] [Example 51] showed Binding selectivity ratio (Bcl-XL Ki/Bcl-2 Ki) equal to 62.1

###

test system: GST-Bcl-2; assay: TR-FRET binding assay, Bcl-2; conditions: TR-FRET Ki values
We use 200 as the dividing line for Binding selectivity ratio (Bcl-XL Ki/Bcl-2 Ki): on or above the line is 1 (yes), below is 0 (no).

See these solved cases before continuing.
COCCNc1ccc(S(=O)(=O)NC(=O)c2ccc(N3CCN(CC4=C(c5ccc(Cl)cc5)CC(C)(C)CC4)CC3)cc2Oc2cccc3[nH]ccc23)cc1[N+](=O)[O-] [EXAMPLE 239]	1 (yes)
CC1(C)CCC(CN2CCN(c3ccc(C(=O)NS(=O)(=O)c4ccc(NC5CCN(S(C)(=O)=O)CC5)c([N+](=O)[O-])c4)c(Oc4ccc5[nH]ccc5c4)c3)CC2)=C(c2ccc(Cl)cc2)C1 [EXAMPLE 335]	1 (yes)
O=C(NS(=O)(=O)c1ccc(NCC2CCOCC2)c([N+](=O)[O-])c1)c1ccc(N2CCN(Cc3cc(OCCN4CCOCC4)ccc3-c3ccc(Cl)cc3)CC2)cc1Oc1ccccc1 [Example 115]	0 (no)
CC1(C)CCC(CN2CCN(c3ccc(C(=O)NS(=O)(=O)c4ccc(NCCN5CCNC5=O)c([N+](=O)[O-])c4)c(Oc4ccc5[nH]ccc5c4)c3)CC2)=C(c2ccc(Cl)cc2)C1 [EXAMPLE 268]	1 (yes)
CC1(C)CCC(CN2CCN(c3ccc(C(=O)NS(=O)(=O)c4ccc(NC5CCN(CCCO)CC5)c([N+](=O)[O-])c4)c(Oc4cccc5[nH]ccc45)c3)CC2)=C(c2ccc(Cl)cc2)C1 [EXAMPLE 195]	0 (no)
CC1(C)CCC(CN2CCN(c3ccc(C(=O)NS(=O)(=O)c4ccc(NCC5COCCO5)c([N+](=O)[O-])c4)c(Oc4cccc5[nH]cnc45)c3)CC2)=C(c2ccc(Cl)cc2)C1 (stereo not shown) [EXAMPLE 450]	0 (no)
CN(C)CC(=O)N1CCO[C@@H](CNc2ccc(S(=O)(=O)NC(=O)c3ccc(N4CCN(CC5=C(c6ccc(Cl)cc6)CC(C)(C)CC5)CC4)cc3Oc3cccc4[nH]cnc34)cc2[N+](=O)[O-])C1 [EXAMPLE 438]	0 (no)
CC1(C)CCC(CN2CCN(c3ccc(C(=O)NS(=O)(=O)c4ccc(NC5CCN(C6CCCC6)CC5)c([N+](=O)[O-])c4)c(Oc4ccc5[nH]ccc5c4)c3)CC2)=C(c2ccc(Cl)cc2)C1 [Example 26]	1 (yes)

Turning to the following compound.
Task item: Would you say CN1CCN(Nc2ccc(S(=O)(=O)NC(=O)c3ccc(N4CCN(CC5=C(c6ccc(Cl)cc6)CC(C)(C)CC5)CC4)cc3Oc3cccc4[nH]ccc34)cc2[N+](=O)[O-])CC1 [EXAMPLE 190] shows Binding selectivity ratio (Bcl-XL Ki/Bcl-2 Ki) at minimum 200?
Reply: 0 (no)
